- System: Hep-G2 (ATCC No. HB-8065) tumor cell line
- PROCEDURE DETAILS: Cell proliferation test (intracellular ATP, CellTiterGlo) on Hep-G2
- Type: cell-based
- CONDITION INFO: Hep-G2, 72 hours incubation, ATP content, tested at 0.3-40 μM; read-out: Activity in a cell proliferation test, expressed as TC50 value, Hep-G2
RESULT TYPE: TC50 (50% inhibition of cell proliferation) (µM)

COMPOUND	EXPERIMENTAL RESULT
CO[C@@H](C(=O)N[C@H]1CCCCN(C)C1=O)[C@H](O)[C@@H](O)[C@H](O)/C=C/C(C)C [Bengamide F]	27
